Would you mind telling me the reported FACS-Seq fitted mean (log10) of each entry?
B1: library; a variant is named by its letters at N, in order (parent)
chain: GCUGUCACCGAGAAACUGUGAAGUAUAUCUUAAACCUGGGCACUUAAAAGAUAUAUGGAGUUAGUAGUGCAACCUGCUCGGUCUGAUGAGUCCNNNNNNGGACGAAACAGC

variants of: B1; experiment: FACS-Seq fitted mean relative fluorescence mCherry/BFP without ligand (log10 relative fluorescence); HEK293T; ligand: cyclic di-GMP (c-di-GMP-II aptamer); higher = higher reporter protein expression; details: ligand present: no
One number for each entry.

> print(dat)
                             sequence.entry             measurement.label  reading
1  GCUGUCACCGAGAAACUGUGAAGUAUAUCUUAAACCUGGGCACUUAAAAGAUAUAUGGAGUUAGUAGUGCAACCUGCUCGGUCUGAUGAGUCCACGAGUGGACGAAACAGC  FACS-Seq fitted mean (log10)   -0.508
2  GCUGUCACCGAGAAACUGUGAAGUAUAUCUUAAACCUGGGCACUUAAAAGAUAUAUGGAGUUAGUAGUGCAACCUGCUCGGUCUGAUGAGUCCUAAAUAGGACGAAACAGC  FACS-Seq fitted mean (log10)   -0.362
3  GCUGUCACCGAGAAACUGUGAAGUAUAUCUUAAACCUGGGCACUUAAAAGAUAUAUGGAGUUAGUAGUGCAACCUGCUCGGUCUGAUGAGUCCCUUGAAGGACGAAACAGC  FACS-Seq fitted mean (log10)   -0.585

// input: 2 variants below; output: FACS-Seq fitted mean (log10) for each
1. GCUGUCACCGAGAAACUGUGAAGUAUAUCUUAAACCUGGGCACUUAAAAGAUAUAUGGAGUUAGUAGUGCAACCUGCUCGGUCUGAUGAGUCCCCCGAAGGACGAAACAGC
2. GCUGUCACCGAGAAACUGUGAAGUAUAUCUUAAACCUGGGCACUUAAAAGAUAUAUGGAGUUAGUAGUGCAACCUGCUCGGUCUGAUGAGUCCGCGGAAGGACGAAACAGC

1. -0.464
2. -0.527
